Test method notes: in vivo
Assay context: male, Sprague-Dawley, rat, plasma, po, 25 mg/kg
Attribute measured: bioavailability (%)
Could you give me the number in %? Just the number is fine.

Qu. # bioavailability lookup, item Cc1cn(-c2cc(NC(=O)c3ccc4c(c3)C[C@H](N(C)c3cncnc3)C4)cc(C(F)(F)F)c2)cn1 [7f]
Ans. 89.9
